# Assay Target: CDK2/Cyclin E1 complex (Homo sapiens)
# Assay Details: CDK2 kinase inhibition assay (Caliper/LabChip EZ Reader)
Measurement Kind: IC50

Examples from the recorded data:
Compound	IC50
CP(C)(=O)c1c(C#N)ccc2c(-c3nc(N[C@H]4CCC[C@@H]4N)ncc3C(F)(F)F)c[nH]c12	> 500 nM
CP(C)(=O)c1c(C(N)=O)ccc2c(-c3nc(N[C@H]4CCC[C@@H]4N)ncc3C(F)(F)F)c[nH]c12	> 500 nM
N[C@H]1CCC[C@@H]1Nc1ncc(C(F)(F)F)c(-c2c[nH]c3c(Cl)c(O)ccc23)n1	> 500 nM

What measured IC50 is associated with COCCN[C@@H]1CC[C@H]1Nc1ncc(C(F)(F)F)c(-c2c[nH]c3cc(C#N)ccc23)n1 on CDK2/Cyclin E1 complex (Homo sapiens)? > 500 nM

What measured IC50 is associated with N#Cc1ccc2c(-c3nc(N[C@@H]4CC[C@H]4N4CCCC4)ncc3C(F)(F)F)c[nH]c2c1 on CDK2/Cyclin E1 complex (Homo sapiens)? > 500 nM

What measured IC50 is associated with Cc1noc(C)c1-c1ccc2c(-c3nc(N[C@H]4CCC[C@@H]4NCCF)ncc3C(F)(F)F)c[nH]c2n1 on CDK2/Cyclin E1 complex (Homo sapiens)? > 500 nM

What measured IC50 is associated with N#Cc1ccc2c(-c3nc(N[C@@H]4C[C@@H]5CCC4N5)ncc3C(F)(F)F)c[nH]c2c1 (racemic) on CDK2/Cyclin E1 complex (Homo sapiens)? > 500 nM
